Please provide measured fold induction at 0.1 µM for the entries that follow.
- target_entity: UniProtKB P10275
- protocol_text: cell-based
- protocol_conditions: read-out: Fold induction of AR response reporter, 0.1 μM
Numbers only.

Examples with their reported fold induction at 0.1 µM follow.
CCNC(=S)N=C1N(c2ccc(C#N)c(C(F)(F)F)c2)C(=S)N(c2ccc(C)cc2)C1(C)C = 1.3
CN1C(=S)N(c2ccc(C#N)c(C(F)(F)F)c2)C(=O)C12CCC2 [RD73, reference compound] = 14.9
Cc1ccc(N2C(=S)N(c3ccc(C#N)c(C(F)(F)F)c3)C(=NC(=S)Nc3ccccc3)C23CCC3)cc1 = 1.19

Look at each compound and report its fold induction at 0.1 µM.
1. CC1(C)C(=O)N(c2ccc(C#N)c(C(F)(F)F)c2)C(=S)N1CCCCO [RU 59063, reference compound]
2. N#Cc1ccc(N2C(=O)C3(CCCC3)NC2=S)cc1C(F)(F)F
3. Cc1ccc(N2C(=S)N(c3ccc(C#N)c(C(F)(F)F)c3)C(=O)C23CCC3)cc1
4. Cc1ccc(N2C(=S)N(c3ccc(C#N)c(C(F)(F)F)c3)C(=NC(=S)Nc3ccc(C#N)c(C(F)(F)F)c3)C23CCC3)cc1

[11, 14.9, 0.87, 1.26]

* * *

So I've got a bunch of compounds here, and I need their IC50 values.
- target_entity: AR (Homo sapiens, UniProt P10275)
- Sequence (P10275 whole entry, looked up): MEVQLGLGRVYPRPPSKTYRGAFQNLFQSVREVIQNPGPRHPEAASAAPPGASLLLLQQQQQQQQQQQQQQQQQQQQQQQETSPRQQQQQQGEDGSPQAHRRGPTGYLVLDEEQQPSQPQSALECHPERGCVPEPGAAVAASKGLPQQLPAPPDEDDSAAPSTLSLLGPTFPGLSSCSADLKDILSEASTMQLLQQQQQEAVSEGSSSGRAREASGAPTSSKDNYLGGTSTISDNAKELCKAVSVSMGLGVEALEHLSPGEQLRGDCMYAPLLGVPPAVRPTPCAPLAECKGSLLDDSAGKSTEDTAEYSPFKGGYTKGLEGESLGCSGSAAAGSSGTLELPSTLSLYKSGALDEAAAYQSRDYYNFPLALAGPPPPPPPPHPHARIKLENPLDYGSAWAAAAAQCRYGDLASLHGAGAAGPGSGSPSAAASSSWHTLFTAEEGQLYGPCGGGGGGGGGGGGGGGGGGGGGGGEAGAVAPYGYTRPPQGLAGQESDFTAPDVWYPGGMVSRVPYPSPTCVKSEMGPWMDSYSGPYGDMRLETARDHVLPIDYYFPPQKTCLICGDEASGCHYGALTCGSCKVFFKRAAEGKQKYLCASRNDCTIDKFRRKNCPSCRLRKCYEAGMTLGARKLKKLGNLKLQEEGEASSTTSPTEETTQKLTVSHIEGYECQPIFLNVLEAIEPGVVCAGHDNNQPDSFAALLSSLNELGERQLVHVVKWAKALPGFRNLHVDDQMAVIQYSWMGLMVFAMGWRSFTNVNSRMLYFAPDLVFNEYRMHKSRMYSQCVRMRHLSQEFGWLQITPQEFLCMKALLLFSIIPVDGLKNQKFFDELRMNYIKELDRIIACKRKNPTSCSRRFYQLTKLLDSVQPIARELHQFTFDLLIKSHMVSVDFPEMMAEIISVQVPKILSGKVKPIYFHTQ
- protocol_text: cell-based
- Assay type: cell-based
Give bare numbers, in nM.

CC(O)c1ccc(N2C(=S)N(c3ccc(C#N)c(C(F)(F)F)c3)C(=O)C23CCC3)cc1 (stereo not shown) [RD116] = 187
Cc1ccc(N2C(=S)N(c3ccc(C#N)c(C(F)(F)F)c3)C(=O)C2(C)CF)cc1 (stereo not shown) [RD68] = 129
CC1(C)C(=O)N(c2ccc(C#N)c(C(F)(F)F)c2)C(=S)N1c1ccc(C(F)(F)F)cc1 [RD66] = 144

State the recorded IC50 for every item in the following list.
1. Cc1ccc(N2C(=S)N(c3ccc(C#N)c(C(F)(F)F)c3)C(=O)C23CCC3)cc1 [RD37]
2. N#Cc1ccc(N2C(=O)C3(CCC3)N(c3ccc(/C=C/C(N)=O)cc3)C2=S)cc1C(F)(F)F [RD119]
3. N#Cc1ccc(N2C(=O)C3(CCC3)N(c3ccc(/C=C/CO)cc3)C2=S)cc1C(F)(F)F [RD120]
4. CC1(C)C(=S)N(c2ccc(C#N)c(C(F)(F)F)c2)C(=S)N1c1ccc(O)cc1 [RD59]
5. N#Cc1ccc(N2C(=O)C3(CCC3)N(c3ccc(C=O)cc3)C2=S)cc1C(F)(F)F [RD114]

1: 128; 2: 113; 3: 114; 4: 287; 5: 263

* * *

- target_entity: AR (Homo sapiens, UniProt P10275)
- protocol_text: cell-based
- Format: cell-based
- protocol_conditions: LNCaP, read-out: Fold induction of endogenous PSA, 10 μM
parameter: fold induction at 10 µM
Numbers only.

CCNC(=S)N=C1N(c2ccc(C#N)c(C(F)(F)F)c2)C(=S)N(c2ccc(C)cc2)C1(C)C [RD91] = 0.85

Provide each entry's fold induction at 10 µM from the list below.
1. CC1(C)C(=O)N(c2ccc(C#N)c(C(F)(F)F)c2)C(=S)N1CCCCO [RU 59063, reference compound]
2. Cc1ccc(N2C(=S)N(c3ccc(C#N)c(C(F)(F)F)c3)C(=O)C23CCC3)cc1 [RD37]
3. CN1C(=S)N(c2ccc(C#N)c(C(F)(F)F)c2)C(=O)C12CCCC2 [RD75, reference compound]
4. Cc1ccc(N2C(=S)N(c3ccc(C#N)c(C(F)(F)F)c3)C(=NC(=S)Nc3ccc(C#N)c(C(F)(F)F)c3)C23CCC3)cc1 [RD93]
5. CN1C(=O)N(c2ccc(C#N)c(C(F)(F)F)c2)C(=O)C12CCC2 [RD74, reference compound]
6. CN1C(=S)N(c2ccc(C#N)c(C(F)(F)F)c2)C(=O)C12CCC2 [RD73, reference compound]
7. Cc1ccc(N2C(=S)N(c3ccc(C#N)c(C(F)(F)F)c3)C(=NC(=S)Nc3ccccc3)C23CCC3)cc1 [RD92]

1: 21.5; 2: 1.15; 3: 17.5; 4: 1.05; 5: 23.8; 6: 25.6; 7: 0.9
